Data origin: ChEMBL document CHEMBL3808357

- ASSAY OVERVIEW: MRT(0 to t) in Sprague-Dawley rat plasma at 1 mg/kg, iv
- Assay type: ADME, organism-based
RECORDED ENDPOINT: MRT last (min)
Reply with just the number (in min).

State its MRT last: Cc1ccc(NC(=O)c2cccc(C(F)(F)F)c2)cc1OC1CCN(C(=O)c2ccncc2)CC1
29

====

- ASSAY OVERVIEW: Apparent volume of distribution in Sprague-Dawley rat plasma at 1 mg/kg, iv
- Format: ADME, organism-based
- CONDITION SUMMARY: read-out: Vz
RECORDED ENDPOINT: Vd
Put down the number, then write its unit next to it.

Write down Vd measured for item Cc1ccc(NC(=O)c2cccc(C(F)(F)F)c2)cc1OC1CCN(C(=O)c2ccncc2)CC1
3.22 L/kg
